The following compounds are listed with their measured inhibition at 10 µM values.
# TARGET_ENTITY: glucosylceramide synthase (Homo sapiens, UniProt Q16739)
# Construct: made in house; host or cells: Expi293F cells (transient expression, pcDNA3.3-TOPO vector); microsome fraction used as enzyme source
# Sequence (Q16739 1-394): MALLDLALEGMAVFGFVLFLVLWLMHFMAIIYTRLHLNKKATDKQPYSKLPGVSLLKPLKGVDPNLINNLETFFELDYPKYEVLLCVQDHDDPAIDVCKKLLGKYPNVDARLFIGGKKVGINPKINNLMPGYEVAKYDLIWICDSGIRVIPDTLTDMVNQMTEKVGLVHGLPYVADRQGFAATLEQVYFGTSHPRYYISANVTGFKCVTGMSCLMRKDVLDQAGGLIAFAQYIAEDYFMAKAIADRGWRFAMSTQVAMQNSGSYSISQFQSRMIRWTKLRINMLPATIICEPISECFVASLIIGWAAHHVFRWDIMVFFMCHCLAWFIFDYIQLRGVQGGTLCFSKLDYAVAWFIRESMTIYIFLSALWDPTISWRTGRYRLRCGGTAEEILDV
# ASSAY_NAME: Glucosylceramide synthase (GCS) enzyme assay, microsome fraction, C8 glucosylceramide quantified by Rapidfire MS/MS
# Type: biochemical
# CONDITION_DETAILS: test compound 10 μM; 1.7 μM UDP-glucose, 3 μM C8 ceramide; room temperature 60 min; read-out: GCS enzyme inhibitory rate at 10 μM (%) (% of control)
# Method: Glucosylceramide Synthase (GCS) Assay In enzyme assay, a microsome fraction obtained by transient expression by Expi293F™ cells (catalog number: A14527, Thermo Fisher Scientific) was used as a glucosylceramide synthase source. […] After the enzymatic reaction, the analysis was performed with Rapidfire MS/MS (API-4000™, SCIEX), and C8 glucosylceramide was quantified to evaluate the inhibitory activity of the test compound against glucosylceramide synthase activity. […]
Unit % implied. Number only.

Lookup: Would you kindly share the measured inhibition at 10 µM for CCC(=O)c1ccc(N2Cc3c(ccnc3-c3ccc(F)cc3OCC(F)(F)F)C2=O)cc1 [Example 189] ?
Found: 94

Lookup: Recorded inhibition at 10 µM of Cc1cc2c(c(-c3ccccc3OCC(F)(F)F)n1)CN(c1ccc(C(C)(C)O)nc1)C2=O [Example 326] , please.
Found: 99

Lookup: Would you kindly share the measured inhibition at 10 µM for CC(C)(O)COc1ccc(N2Cc3c(cn(C4CC4)c(=O)c3-c3ccccc3OCC(F)(F)F)C2=O)cc1 [Example 372] ?
Found: 100

New cases:
Lookup: May I ask what inhibition at 10 µM has been recorded for CC(C)(O)c1ccc(N2Cc3c(cn(C4CC4)c(=O)c3-c3ccccc3OCC(F)(F)F)C2=O)cc1 [Example 371] ?
Found: 100

Lookup: What value of inhibition at 10 µM has been reported for the following compound? Cc1cc2c(c(-c3ccccc3OCC(F)(F)F)n1)CN(c1ccc(OCC3(OC4CCCCO4)CC3)cc1)C2=O (racemic) [Example 374]
Found: 100

Lookup: Look up inhibition at 10 µM for this compound: O=C1c2ccnc(-c3ccccc3OCC(F)(F)F)c2CN1c1ccc(F)cn1 [Example 51]
Found: 99

Lookup: # get_value(readout='inhibition at 10 µM', item= Fc1ccc(N2Cc3ccnc(-c4ccccc4OCC(F)(F)F)c3C2)cc1 [Example 168] )
Found: 100

Lookup: # get_value(readout='inhibition at 10 µM', item= O=C1c2ccnc(-c3ccncc3OCC(F)(F)F)c2CN1c1ccc(OC(F)F)nc1 [Example 105] )
Found: 96
